Please consider the recorded LTKB_BD DILI severity score for Hepatotoxicity in what follows.

compound=CC(C)(S)[C@@H](N)C(=O)O result=3
compound=CC1(C)S[C@@H]2[C@H](NC(=O)[C@H](N)c3ccc(O)cc3)C(=O)N2[C@H]1C(=O)O result=3
compound=CN(C)c1ccc(O)c2c1C[C@H]1C[C@H]3[C@H](N(C)C)C(O)=C(C(N)=O)C(=O)[C@@]3(O)C(O)=C1C2=O result=2

Q: Name the recorded LTKB_BD DILI severity score for Fc1ccc([C@@H]2CCNC[C@H]2COc2ccc3c(c2)OCO3)cc1 .
Ans: 8

Q: Quick one: LTKB_BD DILI severity score for NC12CC3CC(CC(C3)C1)C2 ?
Ans: 3

Q: Can you look up the measured LTKB_BD DILI severity score of CCC1(c2ccccc2)C(=O)NC(=O)NC1=O for me?
Ans: 3

Q: What value of measured LTKB_BD DILI severity score is listed for COC1=CC(=O)C[C@@H](C)[C@]12Oc1c(Cl)c(OC)cc(OC)c1C2=O ?
Ans: 3

Q: Can you share its LTKB_BD DILI severity score? I mean this compound: NC(=O)c1cnccn1 [PYRAZINAMIDE]
Ans: 3

Q: Requested field: LTKB_BD DILI severity score. Item: Oc1ncnc2[nH]ncc12
Ans: 3

Q: Field request: LTKB_BD DILI severity score | item: CC[C@H](C)C(=O)O[C@H]1C[C@H](O)C=C2C=C[C@H](C)[C@H](CC[C@@H](O)C[C@@H](O)CC(=O)O)[C@H]21
Ans: 3

Q: GET /values?readout=LTKB_BD DILI severity score&item= Cc1ccc(C)c(OCCCC(C)(C)C(=O)O)c1
Ans: 3

Q: Reported LTKB_BD DILI severity score for CC(C)NCC(O)COc1cccc2ccccc12 (configuration not stated) : what is it?
Ans: 3

Q: Requested field: LTKB_BD DILI severity score. Item: CCC1=C(C)CN(C(=O)NCCc2ccc(S(=O)(=O)NC(=O)N[C@H]3CC[C@H](C)CC3)cc2)C1=O [GLIMEPIRIDE]
Ans: 7

Q: Would you mind telling me what LTKB_BD DILI severity score value was observed for C[C@]12C=CC(=O)C=C1CC[C@@H]1[C@@H]2[C@@H](O)C[C@@]2(C)[C@H]1CC[C@]2(O)C(=O)CO ?
Ans: 3

Q: Fill blank: measured LTKB_BD DILI severity score of the compound C[C@H]1c2cccc(O)c2C(=O)C2=C(O)[C@]3(O)C(=O)C(C(N)=O)=C(O)[C@@H](N(C)C)[C@@H]3[C@@H](O)[C@@H]21.O is ____.
Ans: 3

Q: Any idea what LTKB_BD DILI severity score was measured for CCOC(=O)C1=C[C@@H](OC(CC)CC)[C@H](NC(C)=O)[C@@H](N)C1 ?
Ans: 3

Q: Given CCOC(=O)[C@H](CCc1ccccc1)N[C@@H](C)C(=O)N1CCC[C@H]1C(=O)O , state its recorded LTKB_BD DILI severity score.
Ans: 4

----------
- System: Hepatotoxicity
- Assay protocol: FDA Liver Toxicity Knowledge Base Benchmark Dataset (LTKB-BD) drugs of most concern for DILI
Assay endpoint: LTKB_BD DILI severity score
When you answer, write just the number.

Q: LTKB_BD DILI severity score for COc1cc(C)c(/C=C/C(C)=C/C=C/C(C)=C/C(=O)O)c(C)c1C ?
Ans: 5

Q: Fill blank: measured LTKB_BD DILI severity score of the compound Cc1oncc1C(=O)Nc1ccc(C(F)(F)F)cc1 [LEFLUNOMIDE] is ____.
Ans: 8

Q: Using the record for CS(=O)(=O)OCCCCOS(C)(=O)=O , report its LTKB_BD DILI severity score.
Ans: 8

----------
- Test system: Hepatotoxicity
- Condition summary: Liver
Assay endpoint: LTKB_BD DILI severity score

// below: answered compounds
compound="Cc1cccc(C)c1OCC(C)N (stereo not drawn)" result=3
compound=CN/C(=N/CCSCc1nc[nH]c1C)NC#N result=2

Q: Look up LTKB_BD DILI severity score: NC(N)=Nc1nc(CSCCC(N)=NS(N)(=O)=O)cs1
Ans: 3

Q: Reported LTKB_BD DILI severity score for CNCCCN1c2ccccc2CCc2ccccc21 : what is it?
Ans: 3

Q: I'd like to know its LTKB_BD DILI severity score. The compound in question is CNCCCC12CCC(c3ccccc31)c1ccccc12
Ans: 5

Q: // returns reported LTKB_BD DILI severity score for input CN[C@H]1CC[C@@H](c2ccc(Cl)c(Cl)c2)c2ccccc21
Ans: 3

Q: What measured LTKB_BD DILI severity score goes with O=P1(N(CCCl)CCCl)NCCCO1 (stereo not drawn) [CYCLOPHOSPHAMIDE ANHYDROUS] ?
Ans: 5

Q: Request the reported LTKB_BD DILI severity score associated with COc1ccc2cc([C@H](C)C(=O)O)ccc2c1
Ans: 3

----------
- Tested on: Hepatotoxicity
- Assay protocol: FDA Liver Toxicity Knowledge Base Benchmark Dataset (LTKB-BD) drugs of most concern for DILI
- Condition summary: Liver
Listed compounds paired with reported LTKB_BD DILI severity score
Just the number, please.

Solved entries:
compound=CNCCC=C1c2ccccc2CCc2ccccc21 quantitative_result=8
compound="Sc1ncnc2nc[nH]c12 [MERCAPTOPURINE ANHYDROUS]" quantitative_result=8
compound=Clc1ccccc1CN1CCc2sccc2C1 quantitative_result=4

Q: Reported LTKB_BD DILI severity score for Cc1ccc(C(=O)c2cc(O)c(O)c([N+](=O)[O-])c2)cc1 : what is it?
Ans: 8

Q: State the recorded LTKB_BD DILI severity score for this entry: O=C(O)Cc1ccccc1Nc1c(Cl)cccc1Cl
Ans: 7

----------
# LTKB_BD DILI severity score values compiled below
- Test system: Hepatotoxicity
- Assay protocol: FDA Liver Toxicity Knowledge Base Benchmark Dataset (LTKB-BD) drugs of most concern for DILI
Give the value as a plain number.

Consider the worked cases shown below.
compound="CN(Cc1cnc2nc(N)nc(N)c2n1)c1ccc(C(=O)N[C@@H](CCC(=O)O)C(=O)O)cc1 [METHOTREXATE]" quantitative_result=3
compound="O=C1CC[C@@]2(O)[C@H]3Cc4ccc(O)c5c4[C@@]2(CCN3CC2CC2)[C@H]1O5 [NALTREXONE]" quantitative_result=3
compound="CCCCCCCCCCC[C@@H](C[C@@H]1OC(=O)[C@H]1CCCCCC)OC(=O)[C@H](CC(C)C)NC=O [ORLISTAT]" quantitative_result=8
compound=CCC[C@@]1(CCc2ccccc2)CC(O)=C([C@H](CC)c2cccc(NS(=O)(=O)c3ccc(C(F)(F)F)cn3)c2)C(=O)O1 quantitative_result=8
compound="C[C@H]1O[C@H](O[C@H]2[C@H](O)[C@@H](O)[C@@H](O[C@H]3[C@H](O)[C@@H](O)C(O)O[C@@H]3CO)O[C@@H]2CO)[C@H](O)[C@@H](O)[C@@H]1N[C@H]1C=C(CO)[C@@H](O)[C@H](O)[C@H]1O (stereo partly drawn) [ACARBOSE]" quantitative_result=5

Q: Recorded LTKB_BD DILI severity score for CN(C)/N=N/c1[nH]cnc1C(N)=O [DACARBAZINE] , please?
Ans: 6

Q: Could you share which LTKB_BD DILI severity score value was measured for COc1ccc(CCN(C)CCCC(C#N)(c2ccc(OC)c(OC)c2)C(C)C)cc1OC (stereo not drawn) ?
Ans: 4

Q: Any idea what LTKB_BD DILI severity score was measured for Cc1nnc(C(C)C)n1[C@@H]1C[C@H]2CC[C@@H](C1)N2CC[C@H](NC(=O)C1CCC(F)(F)CC1)c1ccccc1 [MARAVIROC] ?
Ans: 3

----------
- Test system: Hepatotoxicity
- Assay protocol: FDA Liver Toxicity Knowledge Base Benchmark Dataset (LTKB-BD) drugs of most concern for DILI
Assay endpoint: LTKB_BD DILI severity score
Respond using a number only.

Worked cases, answers included:
molecule=COc1ccccc1Oc1c(NS(=O)(=O)c2ccc(C(C)(C)C)cc2)nc(-c2ncccn2)nc1OCCO assay_endpoint="LTKB_BD DILI severity score" quantitative_result=7
molecule=CC[C@@H](CO)NCCN[C@@H](CC)CO assay_endpoint="LTKB_BD DILI severity score" quantitative_result=8
molecule=CC(C)c1nc(CN(C)C(=O)N[C@H](C(=O)N[C@@H](Cc2ccccc2)C[C@H](O)[C@H](Cc2ccccc2)NC(=O)OCc2cncs2)C(C)C)cs1 assay_endpoint="LTKB_BD DILI severity score" quantitative_result=5
molecule="CC(C)C(=O)Nc1ccc([N+](=O)[O-])c(C(F)(F)F)c1 [FLUTAMIDE]" assay_endpoint="LTKB_BD DILI severity score" quantitative_result=8

Q: Record request: LTKB_BD DILI severity score value, item NC(=O)N1c2ccccc2C=Cc2ccccc21 [CARBAMAZEPINE]
Ans: 7
